Data provenance is patent US11401286B2.

# MEASURED_TARGET: PDE4D7 (Homo sapiens (Human), UniProt Q08499)
# Sequence (Q08499 other isoform, or with tags, fused parts or gaps): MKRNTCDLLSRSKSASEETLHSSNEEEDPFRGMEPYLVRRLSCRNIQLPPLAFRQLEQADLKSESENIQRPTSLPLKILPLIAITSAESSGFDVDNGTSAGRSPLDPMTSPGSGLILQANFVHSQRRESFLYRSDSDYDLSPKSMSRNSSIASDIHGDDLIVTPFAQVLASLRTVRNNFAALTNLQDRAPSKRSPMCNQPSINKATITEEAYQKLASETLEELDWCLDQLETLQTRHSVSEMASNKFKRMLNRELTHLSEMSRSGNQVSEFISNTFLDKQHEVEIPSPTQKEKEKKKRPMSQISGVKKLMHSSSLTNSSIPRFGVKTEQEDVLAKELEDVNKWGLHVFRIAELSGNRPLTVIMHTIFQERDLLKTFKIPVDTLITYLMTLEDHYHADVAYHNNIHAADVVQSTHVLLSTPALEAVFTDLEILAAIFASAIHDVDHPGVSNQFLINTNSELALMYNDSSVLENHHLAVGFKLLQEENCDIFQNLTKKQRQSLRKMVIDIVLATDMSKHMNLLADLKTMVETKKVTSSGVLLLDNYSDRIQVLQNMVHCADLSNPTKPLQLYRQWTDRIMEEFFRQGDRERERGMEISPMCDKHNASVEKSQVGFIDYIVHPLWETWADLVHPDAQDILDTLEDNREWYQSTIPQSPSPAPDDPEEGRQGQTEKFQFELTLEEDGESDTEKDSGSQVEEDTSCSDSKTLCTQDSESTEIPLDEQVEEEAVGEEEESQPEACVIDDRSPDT
# PROTOCOL_CONDITIONS: read-out: PDE4D7 IC50; PDE4D7 without asterisk
Structures can show the parent of a compound that is named as a salt.
IC50 values for the compounds below.

* CCc1nc(Nc2ccc(C(=O)O)cc2)nc(-c2cccc(Cl)c2)n1 [Example 40] | < 1 µM
* OCCc1cccc(Nc2cc(-c3cccc(Cl)c3)nc3c2CCC3)c1 [Example 102, hydrochloride] | > 1 µM
* NC(=O)Cc1ccc(Cc2cc(-c3cccc(Cl)c3)nc3c2CCC3)cc1 [Example 125, hydrochloride] | > 1 µM

Name the recorded IC50 for Fc1ccc(Nc2cc(-c3cccc(Cl)c3)nc3c2CCC3)cc1 [Example 290, hydrochloride] .
> 1 µM

Next compound up: Cc1nc(Nc2ccc(F)cc2)nc(-c2ccc(Cl)s2)n1 [Example 23]
> 1 µM

* * *

pIC50 values for the molecules below.
# MEASURED_TARGET: PDE4D7 (Homo sapiens (Human))
# PROTOCOL_CONDITIONS: read-out: PDE4D7 IC50; PDE4D7 without asterisk
pIC50: −log10 of the molar value. Where a name gives a salt, the structure may show the parent alone.

• OCC[C@H]1CC[C@H](Nc2cc(-c3cccc(Cl)c3)nc3c2CCC3)CC1 [Example 97, hydrochloride] = < 6.00

Name the recorded pIC50 for NC(=O)Cc1ccc(Nc2nc(-c3cccc(Cl)c3)nc3c2CCCC3)cc1 .
> 6.00

Next molecule up: CC(C)(C(=O)O)c1ccc(Cc2cc(-c3cccc(Cl)c3)nc3c2CCC3)cc1 [Example 126, hydrochloride]
< 6.00

Next molecule up: NC(=O)C(CO)Cc1ccc(Nc2nc(-c3cccc(Cl)c3)nc3c2CCC3)cc1 (centres unmarked)
< 6.00

Next molecule up: OCCc1ccc(Nc2cc(C3CCCCC3)nc3c2CCC3)cc1 [Example 251, hydrochloride]
< 6.00

Next molecule up: CCc1nc(Nc2ccc(CC#N)cc2)nc(-c2cccc(Cl)c2)n1
> 6.00

Next molecule up: CCc1cc(Cc2ccc(C(C)(C)C(N)=O)cc2)nc(-c2cccc(Cl)c2)n1
< 6.00

Next molecule up: OCCc1ccc(C(O)c2cc(-c3cccc(Cl)c3)nc3c2CCC3)cc1 (centres unmarked)
< 6.00

* * *

# MEASURED_TARGET: PDE4D7 (Homo sapiens (Human), UniProt Q08499)
# PROTOCOL_CONDITIONS: read-out: PDE4D7 IC50; PDE4D7 without asterisk
pIC50: −log10 of the molar value. Counter-ions that a name gives are not always drawn.
READOUT_NAME: pIC50

Solved entries:
- NC(=O)Cc1ccc(Nc2cc(-c3cccc(Cl)c3)nc3c2CCC3)cc1F [Example 112, hydrochloride]: < 6.00
- Cc1nc(Nc2ccc(CC(=O)O)cc2)nc(-c2ccco2)n1 [Example 24]: < 6.00
- OCCc1ccc(Nc2cc(-c3ccc(Cl)c(Cl)c3)nc3c2CCC3)cc1 [Example 154, hydrochloride]: < 6.00
- C[C@@H](O)Cc1ccc(Nc2cc(-c3cccc(Cl)c3)nc3c2CCC3)cc1 [Example 106]: < 6.00
- OCCc1ccc(Nc2nc(-c3cccc(Cl)c3)nc3c2CCC3)cc1 [Example 162]: > 6.00

Name the recorded pIC50 for CCc1cc(/N=c2\[nH]cc(CC(N)=O)o2)nc(-c2cccc(Cl)c2)n1 [Example 192] .
< 6.00

Next compound up: CC(C)c1nc(Nc2ccc(F)cc2)nc(-c2ccc(Cl)s2)n1 [Example 26]
< 6.00

Next compound up: OB1OCc2cc(Nc3nc(-c4cccc(Cl)c4)nc4c3CCC4)ccc21 [Example 294]
< 6.00

* * *

# MEASURED_TARGET: PDE4D7 (Homo sapiens (Human), UniProt Q08499)
# PROTOCOL_CONDITIONS: read-out: PDE4D7 IC50; PDE4D7 without asterisk
pIC50: −log10 of the molar value. Structures can show the parent of a compound that is named as a salt.
pIC50 values for the compounds below.

* CC(=O)NC(C(=O)O)c1ccc(Nc2nc(-c3ccc(Cl)s3)nc3c2CCC3)cc1 (centres unmarked) | < 6.00
* N#CNC(=O)Cc1ccc(Nc2nc(-c3cccc(Cl)c3)nc3c2S(=O)(=O)CCC3)cc1 | > 6.00

Name the recorded pIC50 for CCc1cc(Cc2ccc(CC(N)=O)cc2)nc(C2CCCC2)n1 .
> 6.00

Next compound up: CCc1nc(Oc2ccc(CC(N)=O)cc2)nc(-c2cccc(Cl)c2)n1
< 6.00

Next compound up: CCCN(C)C(=O)Cc1ccc(Cc2cc(CC)nc(-c3cccc(Cl)c3)n2)cc1
> 6.00

Next compound up: Cc1cccc(-c2cc(Nc3ccc(CCO)cc3)c3c(n2)CCC3)c1 [Example 160, hydrochloride]
< 6.00

Next compound up: OCCc1ccc(Cc2cc(C3CC3)nc(-c3cccc(Cl)c3)n2)cc1
< 6.00

Next compound up: CCc1c(C)nc(-c2ccc(Cl)s2)nc1Nc1ccc(Cc2noc(=O)[nH]2)cc1
< 6.00

Next compound up: CC(O)Cc1ccc(Nc2nc(-c3cccc(Cl)c3)nc3c2CCC3)cc1 (centres unmarked)
< 6.00

Next compound up: NC(=O)Cc1ccc(Nc2cc(-c3cccc(Cl)c3)nc(C3CC3)c2)cc1 [Example 139, hydrochloride]
> 6.00

Next compound up: O=C(O)Cc1ccc(Nc2nc(-c3cccc(Cl)c3)nc3c2S(=O)(=O)CCC3)cc1
> 6.00

Next compound up: OCCc1ccc(Nc2cc(-c3cccc(Cl)c3)nc(C3CC3)c2)cc1 [Example 140, hydrochloride]
< 6.00

Next compound up: O=S1(=O)CCCc2nc(C3CCCC3)nc(Nc3ccc(CCO)cc3)c21
> 6.00

Next compound up: CCc1cc(Cc2ccc(CC(=O)NCCO)cc2)nc(-c2cccc(Cl)c2)n1
> 6.00

Next compound up: COC(=O)Cc1ccc(Cc2cc(-c3cccc(Cl)c3)nc(C(F)(F)F)c2)cc1
< 6.00

Next compound up: CN(C)CCc1ccc(Nc2nc(-c3cccc(Cl)c3)nc3c2CCC3)cc1 [Example 169, hydrochloride]
< 6.00

Next compound up: COC(=O)Cc1ccc(Cc2cc(C(F)(F)F)nc(-c3cccc(Cl)c3)n2)cc1
< 6.00

* * *

IC50 values for the compounds below.
# MEASURED_TARGET: PDE4D7 (Homo sapiens (Human), UniProt Q08499)
# PROTOCOL_CONDITIONS: read-out: PDE4D7 IC50; PDE4D7 without asterisk
Counter-ions that a name gives are not always drawn.

• C[C@H](O)Cc1ccc(Nc2cc(-c3cccc(Cl)c3)nc3c2CCC3)cc1 [Example 107] = > 1 µM
• CCc1nc(Nc2ccc(CC(N)=O)cc2)cc(-c2cccc(Cl)c2)n1 [Example 265] = < 1 µM
• CC(CO)Oc1ccc(Nc2cc(-c3cccc(Cl)c3)nc3c2CCC3)cc1 (centres unmarked) [Example 117, hydrochloride] = > 1 µM
• OCCc1ccc(Nc2cc(-c3cccc(Cl)c3)nc3c2CCC3)cc1 [Example 6] = > 1 µM
• OCCc1ccc(Nc2cc(C(F)(F)F)nc(C3CCCC3)n2)cc1 [Example 227] = < 1 µM

Name the recorded IC50 for CCc1nc(Nc2ccc(CC(N)=O)cc2)nc(-c2cccc(Cl)c2)n1 [Example 57] .
< 1 µM

Next compound up: OCCCc1ccc(Nc2nc(-c3cccc(Cl)c3)nc3c2CCC3)cc1 [Example 163]
< 1 µM

Next compound up: NC(=O)C(Cc1ccc(Nc2cc(-c3cccc(Cl)c3)nc3c2CCC3)cc1)C(N)=O [Example 122, hydrochloride]
> 1 µM

* * *

# MEASURED_TARGET: PDE4D7 (Homo sapiens (Human))
# PROTOCOL_CONDITIONS: read-out: PDE4D7 IC50; PDE4D7 without asterisk
Counter-ions that a name gives are not always drawn.
READOUT_NAME: IC50

- OCCc1ccc(Nc2cc(-c3cccc(Cl)c3)nc(C(F)(F)F)c2)cc1 [Example 146]: < 1000 nM
- CCCc1nc(Nc2ccc(CC(=O)O)cc2)nc(-c2ccc(Cl)s2)n1 [Example 32]: > 1000 nM
- Clc1cccc(-c2nc3c(c(Nc4ccccc4)n2)CCC3)c1 [Example 166]: > 1000 nM
- CC(Cc1ccc(Nc2cc(-c3cccc(Cl)c3)nc3c2CCC3)cc1)(C(N)=O)C(N)=O [Example 124, hydrochloride]: > 1000 nM
- CCc1nc(Nc2ccc(CCO)cc2)nc(-c2cccc(Cl)c2)n1 [Example 58]: < 1000 nM

Name the recorded IC50 for NC(=O)CCCNc1nc(-c2cccc(Cl)c2)nc2c1CCC2 [Example 178] .
> 1000 nM

Next compound up: CCc1c(C)nc(-c2ccc(Cl)s2)nc1Nc1ccc(CS(C)(=O)=O)cc1 [Example 317]
> 1000 nM

Next compound up: O=C(O)CCc1ccc(Nc2nc(-c3cccc(Cl)c3)nc3c2CCC3)cc1 [Example 16]
> 1000 nM

Next compound up: O=C(O)Cc1ccc(Nc2cc(C3CC3)nc(-c3cccc(Cl)c3)n2)nc1 [Example 213]
> 1000 nM
